Biological target: S. pyogenes SKKanGAS, kanamycin survival, BacTiterGlo, 6 h
Test: S. pyogenes SKKanGAS kanamycin growth inhibitors – SKKanGAS strain, luminescence, dose confirmation, streptokinase promoter inhibitor project, dose response (AID 1902);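 note: lower survival reflects blocked streptokinase promoter driving kanamycin resistance gene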
Activity calls are given as the source filed them.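 Rule for the calls: active = EC50 no more than a set limit of log units above the highest dose; inactive = the rest.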
Can you answer with just one of these options? active, inactive

Below, 10 compounds whose answers are already recorded.
{"compound": "c1ccc(-c2nc(-c3nccc4ccccc34)oc2-c2ccccc2)cc1", "testedOn": "S. pyogenes SKKanGAS, kanamycin survival, BacTiterGlo, 6 h", "groupLabel": "active"}
{"compound": "O=C(/C=C/c1ccccc1)NC(NC(=S)Nc1cc(Cl)ccc1Cl)C(Cl)(Cl)Cl (centres undefined)", "testedOn": "S. pyogenes SKKanGAS, kanamycin survival, BacTiterGlo, 6 h", "groupLabel": "active"}
{"compound": "O=C(CSc1nnc(CNC(=O)c2ccc(F)cc2)o1)NCc1ccccc1", "testedOn": "S. pyogenes SKKanGAS, kanamycin survival, BacTiterGlo, 6 h", "groupLabel": "inactive"}
{"compound": "C/C(=N\\Nc1cc(N2CCCCC2)nc(C)n1)c1ccc(Br)cc1", "testedOn": "S. pyogenes SKKanGAS, kanamycin survival, BacTiterGlo, 6 h", "groupLabel": "active"}
{"compound": "N=C1SCC(=O)N1c1ncc(Cc2cccc(Cl)c2)s1", "testedOn": "S. pyogenes SKKanGAS, kanamycin survival, BacTiterGlo, 6 h", "groupLabel": "active"}
{"compound": "COc1cc(/C=C2/SC(=S)N(Cc3ccccc3)C2=O)cc(Cl)c1O", "testedOn": "S. pyogenes SKKanGAS, kanamycin survival, BacTiterGlo, 6 h", "groupLabel": "active"}
{"compound": "CCOC(=O)c1c(C)oc2c1c(C(c1ccccc1)N1CCOCC1)c(O)c1ccccc12 (centres undefined)", "testedOn": "S. pyogenes SKKanGAS, kanamycin survival, BacTiterGlo, 6 h", "groupLabel": "active"}
{"compound": "CCCCCCn1c(=O)c(C(=O)N/N=C/c2cccc(F)c2)c(O)c2ccccc21", "testedOn": "S. pyogenes SKKanGAS, kanamycin survival, BacTiterGlo, 6 h", "groupLabel": "active"}
{"compound": "O=C(O)CSc1nnc(Cn2c(=O)sc3ccccc32)n1-c1cccc(Cl)c1", "testedOn": "S. pyogenes SKKanGAS, kanamycin survival, BacTiterGlo, 6 h", "groupLabel": "inactive"}
{"compound": "CC12CCC(C/C1=N\\N=C1\\NC(=O)/C(=C\\c3ccc(Cl)cc3)S1)C2(C)C (centres undefined)", "testedOn": "S. pyogenes SKKanGAS, kanamycin survival, BacTiterGlo, 6 h", "groupLabel": "active"}

Give the logged outcome of this assay for the following compound: CN(C)/C=C(\C=N\OCc1ccc(Cl)cc1Cl)C(=O)Nc1ccc(Cl)c(Cl)c1 active

Give the logged outcome of this assay for the following compound: O=C(NNc1nc(-c2ccc(F)cc2)cs1)c1ccccc1 active

Give the logged outcome of this assay for the following compound: O=C(CCN1C(=O)/C(=C/c2ccccc2Cl)SC1=S)NNC(=O)c1ccccc1O active

Give the logged outcome of this assay for the following compound: COc1ccc(CNC(=O)c2c(C)oc3c2C(=O)c2ccccc2C3=O)cc1 active

Give the logged outcome of this assay for the following compound: O=c1c2c(n3nnnc3n1Cc1ccccc1)-c1ccccc1CC21CCCC1 active

---

Target: S. pyogenes SKKanGAS, kanamycin survival, BacTiterGlo, 6 h
Assay: S. pyogenes SKKanGAS kanamycin growth inhibitors – SKKanGAS strain, luminescence, dose confirmation, streptokinase promoter inhibitor project, dose response (AID 1902);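 active = EC50 no more than a set limit of log units above the highest dose; inactive = the rest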;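 note: lower survival reflects blocked streptokinase promoter driving kanamycin resistance gene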
Can you answer with just one of these options? active, inactive

{"compound": "O=C(NC(=S)NNC(=O)c1ccccc1[N+](=O)[O-])c1ccc(Br)cc1", "testedOn": "S. pyogenes SKKanGAS, kanamycin survival, BacTiterGlo, 6 h", "groupLabel": "active"}

Give the logged outcome of this assay for the following compound: Cc1cc(C)n(-c2nc(Nc3ccccc3C(F)(F)F)nc(-n3nc(C)cc3C)n2)n1 active

Give the logged outcome of this assay for the following compound: CC(C)c1ccc(OCC(=O)NNC(=S)NC(=O)c2ccco2)c(Br)c1 active

Give the logged outcome of this assay for the following compound: COc1ccc(-c2oc3cccnc3c2C#CC2(O)CCCCC2)cc1 active

Give the logged outcome of this assay for the following compound: O=C(COC(=O)c1ccccc1Br)Nc1nnc(-c2ccccc2)o1 active

---

Molecular target: S. pyogenes SKKanGAS, kanamycin survival, BacTiterGlo, 6 h
Assay: S. pyogenes SKKanGAS kanamycin growth inhibitors – SKKanGAS strain, luminescence, dose confirmation, streptokinase promoter inhibitor project, dose response (AID 1902);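 note: lower survival reflects blocked streptokinase promoter driving kanamycin resistance gene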
The source made the active and inactive calls.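 The calls were made as follows: active = EC50 no more than a set limit of log units above the highest dose; inactive = the rest.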
For each entry below, report its EC50 value.

Some entries whose results are on file:
{"compound": "Brc1ccc(C2C3=C(Nc4ncnn42)c2ccccc2OC3c2ccncc2)cc1 (stereo unspecified)", "EC50": "10100 nM"}
{"compound": "O=C(CSc1nc(-c2ccc(Cl)cc2)[nH]c(=O)n1)Nc1cccc(Cl)c1", "EC50": "2350 nM"}
{"compound": "O=C(NCc1ccc(F)cc1)C(=O)Nc1nc(C23CC4CC(CC(C4)C2)C3)cs1", "EC50": "637 nM"}
{"compound": "Cc1cc(C)c2ccc(N)nc2c1O", "EC50": "3330 nM"}
{"compound": "COc1ccc(-c2oc3ncn(Cc4ccco4)c(=N)c3c2-c2ccc(OC)cc2)cc1", "EC50": "4760 nM"}

Would you be so kind as to report EC50 for each listed record?
1. CC(C)S(=O)(=O)c1csc(NC(=O)Nc2cc(Cl)ccc2Cl)c1Cl
2. O=c1c2ccccc2c(-c2ccccc2)nn1Cc1c(Cl)cccc1Cl
3. c1ccc(-c2cc3c(NCC4COc5ccccc5O4)ncnc3s2)cc1 (stereo unspecified)
4. CCOC(=O)/C(=N\Nc1ccc(Cl)cc1)c1csc(Nc2ccccc2)n1

["1650 nM", "6080 nM", "2980 nM", "1770 nM"]

Would you be so kind as to report EC50 for each listed record?
1. COc1ccccc1CN1CC(C(=O)NCc2ncccc2C)CCC1=O (stereo unspecified)
2. O=C1NC(=O)/C(=C\c2ccccc2OCc2ccccc2)S1
3. Nc1ccc(C#Cc2ccc3oc4ccccc4c(=O)c3c2)cc1
4. C[n+]1c(-c2ccccc2)c2cc(N)ccc2c2ccc(N)cc21
5. C=C[C@]1(C)C[C@@H](OC(=O)CSCCN(CC)CC)[C@]2(C)C(C)CC[C@]3(CCC(=O)[C@H]32)[C@@H](C)[C@@H]1O (stereo partly specified)
6. CSc1n[nH]c2nc3c(c(=O)n12)C1(CCCCC1)Cc1ccccc1-3
7. Oc1ccc(Oc2ccc(Oc3ccc(O)cc3)cc2)cc1

> 15000 nM (inactive)
10300 nM
1390 nM
1540 nM
< 60 nM
10500 nM
5250 nM

Would you be so kind as to report EC50 for each listed record?
1. O=C(NNC1=C(C(=O)C(F)(F)F)CCC1)c1ccccc1O
2. Cc1ccc(C)c(NC(=S)N/N=C2/CCCCc3ccccc32)c1
3. CC(/C=C1\SC(=O)N(CC(=O)Nc2ccc(O)cc2)C1=O)=C\c1ccccc1
4. Cc1cc(N/N=C\c2ccc(Br)cc2)nc(-n2nc(C)cc2C)n1
5. CCOc1ccc2c(c1)C(=NNC(=O)c1ccncc1)c1cc(OCC)ccc1-2
6. Oc1c(C(c2ccc(Cl)cc2)N2CCCC2)cc(Cl)c2cccnc12 (stereo unspecified)
7. C=CC(C)(C)c1c(O)c(CC=C(C)C)c(O)c2c(=O)c3ccc(O)c(O)c3oc12

1: 724 nM; 2: 643 nM; 3: 8020 nM; 4: 414 nM; 5: 1570 nM; 6: 1530 nM; 7: 1800 nM

Would you be so kind as to report EC50 for each listed record?
1. CCC[N+]1(CC#CC2(O)CCCCC2)CCOCC1
2. O=C1C(NS(=O)(=O)c2cccs2)=C(N2CCN(c3cccc(C(F)(F)F)c3)CC2)C(=O)c2ccccc21
3. CCOP(=O)(Cc1ccc(C(=O)CC)o1)OCC

1. > 15000 nM (inactive)
2. 8850 nM
3. > 15000 nM (inactive)

---

Target: S. pyogenes SKKanGAS, kanamycin survival, BacTiterGlo, 6 h
Test: S. pyogenes SKKanGAS kanamycin growth inhibitors – SKKanGAS strain, luminescence, dose confirmation, streptokinase promoter inhibitor project, dose response (AID 1902);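 note: lower survival reflects blocked streptokinase promoter driving kanamycin resistance gene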
Calls of active or inactive are those of the source.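 How the source made its calls: active means EC50 no more than a set limit of log units above the highest dose; inactive means the rest.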
Can you answer with just one of these options? true for active, false for inactive

Below, 6 compounds whose answers are already recorded.
{"compound": "CCCCCCCCCCOC(=O)Cn1c(COc2ccccc2)[n+](C)c2ccccc21", "groupLabel": "true"}
{"compound": "Cc1cc(C(=O)N/N=C/c2cc(Cl)cc([N+](=O)[O-])c2O)c2ccccc2n1", "groupLabel": "true"}
{"compound": "COc1ccc(Oc2nc(-c3ccccn3)nc3ccccc23)cc1", "groupLabel": "true"}
{"compound": "COc1ccc(CCCC(=O)N/N=C/c2cccc(OC)c2O)cc1C", "groupLabel": "true"}
{"compound": "Clc1ccc(-c2n[nH]c3c2CCC3)c(Cl)c1", "groupLabel": "true"}
{"compound": "CCC(C)Sc1cc(-c2nc3ccc(C)cn3c2NCc2ccccc2)ccc1OC (stereo not given)", "groupLabel": "true"}

Give the logged outcome of this assay for the following compound: Cc1cc(/C=C2\SC(=S)N(C)C2=O)c(C)n1-c1ccc(O)cc1 true

Give the logged outcome of this assay for the following compound: CCOc1cc(CNc2ccc3c(c2)CCC3)ccc1OC false

Give the logged outcome of this assay for the following compound: Cc1ccc(N2C(=O)C3CC(c4ccccc4)=C4C5C=CC(C6C(=O)N(c7ccc(C)cc7)C(=O)C56)C4C3C2=O)cc1 (stereo not given) true

Give the logged outcome of this assay for the following compound: CCOC(=O)c1c(-c2ccc(OC)cc2)csc1/N=C/C1=C(O)CCCC1=O true

Give the logged outcome of this assay for the following compound: O=C(CSc1nnc(NC(=O)c2cccc(F)c2)s1)NCC1CCCO1 (stereo not given) false

Give the logged outcome of this assay for the following compound: c1ccc2c(Nc3nc4c(s3)CCCC4)cccc2c1 true

Give the logged outcome of this assay for the following compound: Cn1ncc(Cl)c1C(=O)N1CCC2(CC1)OCCO2 false
